- Tested on: IGROV1 ovarian
- assay text: NCI-60 one-dose screen, 48 h
- experimental parameters: 10 µM
The panel holds about 83,000 compounds, 20% with a hit somewhere; the sample as a whole holds those more often. Active and inactive are the calls of the source. Rule for the calls: active = growth percent below 10; inactive = the rest.
Outcomes: 1.0 = active, 0.0 = inactive

[[record]]
compound_smiles = "CN1CCc2c(sc3ncnc(N/N=C/c4cn(-c5ccccc5)nc4-c4ccc(Br)cc4)c23)C1"
label = 0.0

[[record]]
compound_smiles = "CC(=C(c1ccc(OCCN2CCCCCC2)cc1)c1ccc(OCCN2CCCCCC2)cc1)c1ccc(Cl)cc1"
label = 1.0

[[record]]
compound_smiles = "CCN1CCN(c2ccc(NC(=O)Nc3ccc(-c4cc(C(=O)NC)c5ncccc5n4)cc3)cc2C(F)(F)F)CC1"
label = 1.0

[[record]]
compound_smiles = "N#Cc1ccc(-c2nn(-c3ccc(C(=O)O)cc3)cc2CNc2ccc(Cl)cc2)cc1"
label = 0.0


* * *

- Tested on: KM12 colon
- assay text: NCI-60 one-dose screen, 48 h (100 = growth as untreated, 0 = no growth, -100 = all killed)
- experimental parameters: 10 µM
Compounds without any hit were thinned out: in the full panel of roughly 83,000, 20% have a hit.
reported endpoint: growth (%)

[[record]]
compound = "CO[C@H]1CSS[C@@H]1Cn1nc(-c2ccc(Oc3ccccc3)cc2)c2c(N)ncnc21"
target_of_assay = "KM12 colon"
reported_endpoint = "growth"
readout_number = 17.5

[[record]]
compound = "CC(=O)Nc1ccc(-n2cnc3cc(-c4ccc(NS(C)(=O)=O)cc4)ccc32)cc1"
target_of_assay = "KM12 colon"
reported_endpoint = "growth"
readout_number = 39.8

[[record]]
compound = "CC(C)(C)c1ccc(NCc2cn(-c3ccc(C(=O)O)cc3)nc2-c2ccc(C#N)cc2)cc1"
target_of_assay = "KM12 colon"
reported_endpoint = "growth"
readout_number = -38.3

[[record]]
compound = "CC(=O)NS(=O)(=O)c1ccc(NC(=O)CSC2=NC(c3ccccc3)C(C(C)=O)=C(C)N2)cc1 (stereo not drawn)"
target_of_assay = "KM12 colon"
reported_endpoint = "growth"
readout_number = 104

[[record]]
compound = "CC1(c2ccccc2)NC(=O)N(CC(=O)Nc2ccc(C(=O)/C=C/C=C/c3ccccc3)cc2)C1=O (stereo not drawn)"
target_of_assay = "KM12 colon"
reported_endpoint = "growth"
readout_number = 21

[[record]]
compound = "C=C1CCC2C3(C)COC(c4c(F)cccc4F)OC3CCC2(C)C1CC(O)C1=CCOC1=O (stereo not drawn)"
target_of_assay = "KM12 colon"
reported_endpoint = "growth"
readout_number = 54.3

[[record]]
compound = "COc1ccc2nc(Cl)c(-c3cc(-c4ccccc4)nc(N)n3)cc2c1"
target_of_assay = "KM12 colon"
reported_endpoint = "growth"
readout_number = -0.39

[[record]]
compound = "CC1(C)[C@@H](NCO)CC[C@]2(C)[C@H]3C(=O)C=C4[C@@H]5C[C@](C)(CO)CC[C@]5(C)CC[C@@]4(C)[C@]3(C)CC[C@@H]12"
target_of_assay = "KM12 colon"
reported_endpoint = "growth"
readout_number = 65.7


* * *

- Test system: RPMI-8226 leukemia
- assay text: NCI-60 one-dose screen, 48 h (100 = growth as untreated, 0 = no growth, -100 = all killed)
- experimental parameters: 10 µM
The panel holds about 83,000 compounds, 20% with a hit somewhere; the sample as a whole holds those more often.
Lab note: anything with growth below 20% is marked true; values at 20% or higher are marked false.

[[record]]
compound = "O=C(O)CCCCCCCCCCN1C(=O)/C(=C/c2cnc(-c3ccccc3)s2)SC1=S"
label = "false"

[[record]]
compound = "Cc1noc2c(Cc3ccccc3)nn(CC(=O)N/N=C/c3ccc(Cl)cc3)c(=O)c12"
label = "false"

[[record]]
compound = "CN1CCc2c(sc3ncnc(N/N=C/c4ccc5ccccc5c4)c23)C1"
label = "false"

[[record]]
compound = "CCOC(=O)N/C(=C1/OCCN1C)[P+](c1ccccc1)(c1ccccc1)c1ccccc1"
label = "false"

[[record]]
compound = "CC(=O)Nc1ccc(-n2cnc3cc(-c4ccc(O)cc4)ccc32)cc1C"
label = "false"

[[record]]
compound = "Cc1ccc(-c2nc3ccc(C(=O)N=Nc4c(O)[nH]c5ccc(Br)cc45)cc3[nH]2)cc1"
label = "false"

[[record]]
compound = "COC1=C[C@]23CCC(=O)N2CCc2cc4c(cc2[C@@H]3[C@@H]1OC(=O)CCCC(C)C)OCO4"
label = "false"

[[record]]
compound = "O=C(c1ccc(Cl)cc1)C1[C@H](c2ccc(Br)cc2)[C@@H](c2ccccc2)NC12C(=O)Nc1ccc(Cl)cc12 (stereo not given in full)"
label = "true"

[[record]]
compound = "CN1CCN(c2ccc(Nc3nc(NCCCNC(=O)c4ccccc4)c4sccc4n3)cc2)CC1"
label = "true"

[[record]]
compound = "CCCn1c(O)c(N=Nc2nc(-c3cc4ccccc4oc3=O)cs2)c2cc(Br)ccc21"
label = "false"

[[record]]
compound = "O=C(NO)c1ccc(CN2CCN(c3nc(-c4ccccc4)c4ccccc4n3)CC2)cc1"
label = "false"

[[record]]
compound = "Nc1nc(-c2ccccc2)cs1"
label = "false"

[[record]]
compound = "COc1cc2c3c(n(CCCN4CCOCC4)c(=O)c2cc1OC)-c1nc2c(cc1C3=O)OCO2"
label = "true"

[[record]]
compound = "Cc1ccc(-c2cc(C(=O)N=Nc3c(O)[nH]c4ccc(Br)cc34)c3ccccc3n2)cc1"
label = "false"

[[record]]
compound = "O/N=C(\\CSc1nnc(-c2c[nH]c3ccccc23)n1-c1ccccc1)c1ccc(Cl)cc1"
label = "true"

[[record]]
compound = "CCOC(=O)C(Cc1ccccc1)N1C(=O)/C(=C/N2N=C(c3ccc(OC)cc3)CC2c2ccc3ccccc3c2)SC1=S (stereo not given)"
label = "true"

[[record]]
compound = "Cn1c(O)c(N=Nc2nc(-c3cc4ccccc4oc3=O)cs2)c2cc(Br)ccc21"
label = "false"

[[record]]
compound = "CCOC(=O)C1=C(N)N(c2ccc(Cl)cc2)C2=C(C(=O)CC(C)(C)C2)C1c1ccc(N2CCOCC2)cc1 (stereo not given)"
label = "false"

[[record]]
compound = "N#Cc1c(NC(=O)c2ccc(C(F)(F)F)cc2C(F)(F)F)sc2c1CCC(=O)C2"
label = "true"

